ASSAYED SYSTEM: PRMT3 (Homo sapiens, UniProt O60678)
Sequence (O60678 whole entry, species assumed): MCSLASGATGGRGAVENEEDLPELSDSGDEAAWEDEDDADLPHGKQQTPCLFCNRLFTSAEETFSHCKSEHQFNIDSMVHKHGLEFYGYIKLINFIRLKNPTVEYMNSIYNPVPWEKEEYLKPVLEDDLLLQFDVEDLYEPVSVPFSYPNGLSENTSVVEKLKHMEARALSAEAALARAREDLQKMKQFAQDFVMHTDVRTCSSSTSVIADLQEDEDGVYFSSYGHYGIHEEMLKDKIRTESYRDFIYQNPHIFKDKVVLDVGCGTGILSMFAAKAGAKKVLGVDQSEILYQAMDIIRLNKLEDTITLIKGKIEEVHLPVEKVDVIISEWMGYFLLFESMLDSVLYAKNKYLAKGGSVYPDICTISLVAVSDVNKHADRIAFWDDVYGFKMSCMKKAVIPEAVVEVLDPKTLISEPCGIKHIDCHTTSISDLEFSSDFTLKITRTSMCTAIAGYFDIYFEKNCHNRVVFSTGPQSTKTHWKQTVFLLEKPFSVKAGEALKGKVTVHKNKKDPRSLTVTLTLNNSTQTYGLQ
PROTOCOL NOTES: Methyltransferase Hot Spot radioisotope assay, PRMT3
Assay type: biochemical
REPORTED CONDITIONS: text and Fig. 4D curve fit; read-out: IC50 for PRMT3

| MOLECULE | IC50 |
| --- | --- |
| COC(=O)CCC(C)C1CCC2C3C(N)CC4CC(OC(C)=O)CCC4(C)[C@H]3CC(N)C12C (stereo in doubt) [CC-410] | 104 µM |

* * *

ASSAYED SYSTEM: SMYD2 (Homo sapiens, UniProt Q9NRG4)
Construct: purchased Reaction Biology Corporation
Sequence (Q9NRG4 whole entry, species assumed): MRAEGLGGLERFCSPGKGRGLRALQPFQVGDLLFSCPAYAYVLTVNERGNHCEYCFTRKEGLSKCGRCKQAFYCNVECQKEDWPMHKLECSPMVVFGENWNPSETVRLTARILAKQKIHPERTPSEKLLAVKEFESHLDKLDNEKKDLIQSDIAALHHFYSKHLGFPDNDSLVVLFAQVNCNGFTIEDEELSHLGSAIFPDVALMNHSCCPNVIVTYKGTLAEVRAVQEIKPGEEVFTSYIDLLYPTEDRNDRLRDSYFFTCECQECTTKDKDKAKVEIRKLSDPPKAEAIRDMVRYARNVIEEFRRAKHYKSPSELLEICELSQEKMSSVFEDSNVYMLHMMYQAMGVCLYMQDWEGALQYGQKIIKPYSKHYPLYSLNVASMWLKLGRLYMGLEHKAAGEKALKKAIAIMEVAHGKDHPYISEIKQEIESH
PROTOCOL NOTES: Methyltransferase Hot Spot radioisotope assay, SMYD2
Format: biochemical

| COMPOUND | IC50 (µM) |
| --- | --- |
| COC(=O)CCC(C)C1CCC2C3C(N)CC4CC(OC(C)=O)CCC4(C)[C@H]3CC(N)C12C (stereo in doubt) | 34.3 |
